Hello, the source for this data is patent US7556938B1, in case you need it.

- TESTED_TARGET: T1, rKv4.3N (Rattus norvegicus, UniProt Q62897)
- T1 construct: expressed in transfected cells; host or cells: yeast HF7c (bait), mated with Y187 (fish)
- T1 sequence (Q62897 1-180): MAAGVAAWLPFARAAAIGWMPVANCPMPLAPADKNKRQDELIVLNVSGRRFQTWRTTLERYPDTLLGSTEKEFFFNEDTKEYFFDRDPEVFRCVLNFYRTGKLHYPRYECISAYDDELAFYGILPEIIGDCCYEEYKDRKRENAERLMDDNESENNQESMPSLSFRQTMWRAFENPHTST
- TEST_DESCRIPTION: Yeast two-hybrid binding and specificity test, Kv4.3 N-terminal bait
RECORDED_METRIC: binding to rKv4.3N in yeast two-hybrid assay

MOLECULE: Rat 7s: rat ortholog of the human vacuolar H(+)-ATPase catalytic subunit A (partial) (protein) ADSTSRWAEALREISGRLAEMPADSGYPAYLGARLASFYERAGRVKCLGNPEREGSVSIVGAVSPPGGDFSDPVTSATLGIVQVFWGLDKKLAQRKHFPSVNWLISYSKYMRALDEYYDKHFTEFVPLRTKAKEILQEEEDLAEIVQLVGKASLAETDKITLEVAKLIKDDFLQQNGYTPYDRFCPFYKTVGMLSNMISFYDMARRAVETTAQSDNKITWSIIREHMGEILYKLSSMKFKDPVKDGEAKIKADYAQLLEDMQNAFRSLED
DATA_VALUE: binds
--
MOLECULE: Rat 5p: identical to rat Calpactin I light chain or P10 (protein) MPSQMEHAMETMMLTFHRFAGEKNYLTKEDLRVLMEREFPGFLENQKDPLAVDKIMKDLDQCRDGKVGFQSFLSLVAGLIIACNDYFVVHMKQKK
DATA_VALUE: binds
